Origin of measurements: patent US10759787B2

Assay Procedure: Pharmacokinetics assay in SD rats after intragastrical administration
Type: in vivo
Reported Conditions: both sexes, Sprague-Dawley, rat, plasma, po, 5 mg/kg, read-out: Clearance CL/F
Parameter: CL/F (mL/min/kg)

Compound	CL/F [mL/min/kg]
CCc1c(N(CC)C2CCOCC2)cc2oc(CN3CCCCC3)cc2c1C(=O)NCc1c(C)cc(C)[nH]c1=O [Example 2]	222
CCc1c(N(CC)C2CCOCC2)cc2oc(CN3CCCCC3)cc2c1C(=O)NCc1c(OC)cc(C)[nH]c1=O [Example 1]	390

[I] CCc1c(N(CC)C2CCOCC2)cc2oc(C3CCN(C(C)C)CC3)cc2c1C(=O)NCc1c(C)cc(C)[nH]c1=O [Example 9]
[II] CCc1cc(C)[nH]c(=O)c1CNC(=O)c1c(CC)c(N(CC)C2CCOCC2)cc2oc(CN3CCCCC3)cc12 [Example 3]
Lab notebook, comparison: I versus II , higher CL/F goes to which? Return value: the label identifying the chosen record. I

====

Assay Procedure: Pharmacokinetics assay in SD rats after intragastrical administration
Assay type: in vivo
Reported Conditions: both sexes, Sprague-Dawley, rat, plasma, po, 5 mg/kg, read-out: Mean Residence Time MRT
Parameter: MRT (h)

Answered examples (2):
Entry Smiles	Units Label	MRT
CCc1c(N(CC)C2CCOCC2)cc2oc(C3CCN(C(C)C)CC3)cc2c1C(=O)NCc1c(C)cc(C)[nH]c1=O	h	3.48
CCc1c(N(CC)C2CCOCC2)cc2oc(CN3CCCCC3)cc2c1C(=O)NCc1c(OC)cc(C)[nH]c1=O	h	2.37

[a] CCc1c(N(CC)C2CCOCC2)cc2oc(CN3CCCCC3)cc2c1C(=O)NCc1c(C)cc(C)[nH]c1=O
[b] CCc1cc(C)[nH]c(=O)c1CNC(=O)c1c(CC)c(N(CC)C2CCOCC2)cc2oc(CN3CCCCC3)cc12
Param pair: a , b . Output: the one whose MRT is numerically greater. Lab log: write the label of the selected item as the result. b
(b: 4.65 h, a: 3.18 h)

====

Study System: EZH2-A677G (Homo sapiens (Human), UniProt Q15910, A677G)
Sequence (Q15910 whole entry A677G): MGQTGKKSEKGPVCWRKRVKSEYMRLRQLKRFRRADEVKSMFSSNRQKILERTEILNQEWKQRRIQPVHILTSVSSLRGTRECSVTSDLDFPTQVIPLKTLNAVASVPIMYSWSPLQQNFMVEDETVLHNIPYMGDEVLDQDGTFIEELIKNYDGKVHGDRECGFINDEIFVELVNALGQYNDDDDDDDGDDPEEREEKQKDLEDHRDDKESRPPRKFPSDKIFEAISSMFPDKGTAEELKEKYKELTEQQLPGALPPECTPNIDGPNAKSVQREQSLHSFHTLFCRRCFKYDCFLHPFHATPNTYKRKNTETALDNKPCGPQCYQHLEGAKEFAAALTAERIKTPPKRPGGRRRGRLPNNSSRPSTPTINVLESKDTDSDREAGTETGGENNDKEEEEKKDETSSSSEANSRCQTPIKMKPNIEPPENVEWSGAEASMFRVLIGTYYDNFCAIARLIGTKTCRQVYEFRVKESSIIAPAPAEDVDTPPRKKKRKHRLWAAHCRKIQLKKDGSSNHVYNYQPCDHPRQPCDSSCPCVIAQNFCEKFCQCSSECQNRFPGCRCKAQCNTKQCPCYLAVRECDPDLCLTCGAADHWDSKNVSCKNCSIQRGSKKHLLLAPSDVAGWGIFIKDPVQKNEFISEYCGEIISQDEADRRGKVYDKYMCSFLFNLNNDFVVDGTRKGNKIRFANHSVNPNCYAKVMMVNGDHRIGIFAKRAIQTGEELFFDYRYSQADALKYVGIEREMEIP
Sequence (O75530 whole entry partner): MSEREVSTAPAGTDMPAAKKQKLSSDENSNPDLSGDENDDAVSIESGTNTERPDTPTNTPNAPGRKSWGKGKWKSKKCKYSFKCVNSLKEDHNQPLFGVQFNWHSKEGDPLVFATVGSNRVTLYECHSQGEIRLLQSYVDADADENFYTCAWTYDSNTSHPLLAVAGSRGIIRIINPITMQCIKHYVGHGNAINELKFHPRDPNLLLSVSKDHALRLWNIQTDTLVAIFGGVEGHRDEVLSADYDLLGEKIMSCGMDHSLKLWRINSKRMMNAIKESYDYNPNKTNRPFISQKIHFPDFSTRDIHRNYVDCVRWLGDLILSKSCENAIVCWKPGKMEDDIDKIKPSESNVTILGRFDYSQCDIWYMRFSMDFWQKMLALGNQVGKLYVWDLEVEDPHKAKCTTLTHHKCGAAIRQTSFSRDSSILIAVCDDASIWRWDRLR
Sequence (Q15022 whole entry partner): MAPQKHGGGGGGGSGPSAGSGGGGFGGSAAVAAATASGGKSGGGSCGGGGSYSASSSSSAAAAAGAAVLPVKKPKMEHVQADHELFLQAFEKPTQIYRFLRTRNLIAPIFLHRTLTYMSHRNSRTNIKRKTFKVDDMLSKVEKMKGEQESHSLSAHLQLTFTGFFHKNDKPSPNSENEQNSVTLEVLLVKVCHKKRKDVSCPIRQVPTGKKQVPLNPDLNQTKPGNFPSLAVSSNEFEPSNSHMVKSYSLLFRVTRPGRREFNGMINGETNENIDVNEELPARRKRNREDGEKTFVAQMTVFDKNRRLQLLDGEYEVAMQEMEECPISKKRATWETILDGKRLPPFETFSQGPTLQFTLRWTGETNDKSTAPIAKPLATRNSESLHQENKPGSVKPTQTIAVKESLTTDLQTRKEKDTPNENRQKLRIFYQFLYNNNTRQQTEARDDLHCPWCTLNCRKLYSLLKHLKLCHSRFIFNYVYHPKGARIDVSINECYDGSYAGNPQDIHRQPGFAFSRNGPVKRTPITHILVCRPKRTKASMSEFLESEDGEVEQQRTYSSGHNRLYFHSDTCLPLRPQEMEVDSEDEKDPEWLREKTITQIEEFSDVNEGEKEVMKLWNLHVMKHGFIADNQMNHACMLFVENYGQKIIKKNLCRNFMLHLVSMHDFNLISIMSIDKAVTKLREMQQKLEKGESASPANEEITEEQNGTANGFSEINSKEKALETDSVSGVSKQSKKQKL
Sequence (Q09028 whole entry partner): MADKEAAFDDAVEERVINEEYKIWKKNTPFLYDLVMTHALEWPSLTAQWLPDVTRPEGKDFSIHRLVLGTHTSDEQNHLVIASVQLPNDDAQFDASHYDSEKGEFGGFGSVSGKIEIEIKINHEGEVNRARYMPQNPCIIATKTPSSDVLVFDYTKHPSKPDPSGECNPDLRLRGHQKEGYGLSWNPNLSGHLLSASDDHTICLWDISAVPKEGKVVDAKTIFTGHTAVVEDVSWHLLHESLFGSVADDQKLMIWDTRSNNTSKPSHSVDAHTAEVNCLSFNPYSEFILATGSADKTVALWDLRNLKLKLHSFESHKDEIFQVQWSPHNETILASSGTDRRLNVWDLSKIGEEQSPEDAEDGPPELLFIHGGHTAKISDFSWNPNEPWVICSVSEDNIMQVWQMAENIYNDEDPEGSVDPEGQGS
Sequence (Q6ZN18 whole entry partner): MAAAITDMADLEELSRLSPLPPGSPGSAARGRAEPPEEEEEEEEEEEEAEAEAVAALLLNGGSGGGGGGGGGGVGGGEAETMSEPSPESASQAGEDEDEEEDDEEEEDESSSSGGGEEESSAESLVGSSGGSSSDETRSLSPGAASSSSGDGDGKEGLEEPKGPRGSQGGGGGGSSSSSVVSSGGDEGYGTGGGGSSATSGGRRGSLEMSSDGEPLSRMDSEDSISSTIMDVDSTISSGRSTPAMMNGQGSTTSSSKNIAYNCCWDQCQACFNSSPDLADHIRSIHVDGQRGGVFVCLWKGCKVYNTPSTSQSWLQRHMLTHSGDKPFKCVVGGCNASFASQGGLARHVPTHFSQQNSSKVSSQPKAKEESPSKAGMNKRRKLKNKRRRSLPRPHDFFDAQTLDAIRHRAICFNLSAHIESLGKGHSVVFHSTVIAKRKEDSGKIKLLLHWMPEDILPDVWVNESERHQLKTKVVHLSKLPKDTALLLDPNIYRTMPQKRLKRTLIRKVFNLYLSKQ
Assay Procedure: EZH2-A677G mutant enzyme activity assay (HTRF)
Reported Conditions: read-out: IC50 for inhibiting the activity of enzyme EZH2-A677G
Parameter: IC50 (nM)

Examples with their reported IC50 follow.
Entry Smiles	Meas Value
CCc1c(N(CC)C2CCOCC2)cc2oc(C3CCN(C(C)C)CC3)cc2c1C(=O)NCc1c(C)cc(C)[nH]c1=O	5.7
CCN(c1cc2oc(C#N)cc2c(C(=O)NCc2c(OC)cc(C)[nH]c2=O)c1C)C1CCOCC1	0.8
CCc1c(N(CC)C2CCOCC2)cc2oc(C3CCN(C)CC3)cc2c1C(=O)NCc1c(OC)cc(C)[nH]c1=O	9.9

[a] CCN(c1cc2oc(C3=CCN(C)CC3)cc2c(C(=O)NCc2c(C)cc(C)[nH]c2=O)c1C)C1CCOCC1
[b] CCc1c(N(CC2CC2)C2CCN(CC(F)(F)F)CC2)cc2occc2c1C(=O)NCc1c(OC)cc(C)[nH]c1=O
[c] CCc1c(N(CC)C2CC(F)(F)C2)cc2occc2c1C(=O)NCc1c(OC)cc(C)[nH]c1=O
[d] CCc1c(N(CC)C2CCS(=O)(=O)CC2)cc2occc2c1C(=O)NCc1c(OC)cc(C)[nH]c1=O
Rank the 4 molecules: largest IC50 first, smallest last. Output spec: labels arranged per the requested ranking. a, b, c, d
